# Test Method Notes: Aqueous solubility in pH 7.4 PBS buffer by UV-Visible spectrophotometric method
# Type: physicochemical
# solubility annotations

| Compound String | Value Operator | solubility (µg/mL) |
| --- | --- | --- |
| C=CC(=O)Nc1cccc(-n2c(=O)n(C(C)C)c(=O)c3cnc(Nc4ccc(N5CCN(C)CC5)c(C)c4)nc32)c1 | = | 280 |
| C=CC(=O)Nc1cccc(-n2c(=O)n(C)c(=O)c3cnc(Nc4ccc(N5CCOCC5)cc4OC)nc32)c1 | = | 61 |
| C=CC(=O)Nc1cccc(-n2c(=O)n(C)c(=O)c3cnc(Nc4ccc(N5CCN(C(C)=O)CC5)cc4OC)nc32)c1 | < | 10 |
| C=CC(=O)Nc1cccc(-n2c(=O)n(CCc3ccccc3)c(=O)c3cnc(Nc4ccc(N5CCC(N(C)C)CC5)cc4OC)nc32)c1 | = | 99 |
| C=CC(=O)Nc1cccc(-n2c(=O)n(CC)c(=O)c3cnc(Nc4ccc(N5CCC(N(C)C)CC5)cc4OC)nc32)c1 | = | 229 |

---

# Target Or System: Cytochrome P450 2C19 (Homo sapiens, UniProt P33261)
# Sequence (P33261 whole entry): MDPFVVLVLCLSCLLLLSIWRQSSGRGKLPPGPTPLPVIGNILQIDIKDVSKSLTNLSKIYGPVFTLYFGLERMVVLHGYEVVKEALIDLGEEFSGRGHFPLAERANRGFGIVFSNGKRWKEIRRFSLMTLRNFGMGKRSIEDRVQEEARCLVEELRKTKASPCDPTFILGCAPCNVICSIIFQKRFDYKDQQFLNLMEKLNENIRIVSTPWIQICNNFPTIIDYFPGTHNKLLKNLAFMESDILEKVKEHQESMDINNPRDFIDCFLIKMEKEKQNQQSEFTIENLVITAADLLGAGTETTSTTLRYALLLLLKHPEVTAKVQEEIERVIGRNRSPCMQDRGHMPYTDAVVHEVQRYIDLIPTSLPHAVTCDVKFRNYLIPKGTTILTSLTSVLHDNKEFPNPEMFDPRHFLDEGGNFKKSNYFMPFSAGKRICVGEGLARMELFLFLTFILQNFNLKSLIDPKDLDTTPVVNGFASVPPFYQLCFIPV
Measurement Name: IC50

| Compound String | Result |
| --- | --- |
| C=CC(=O)Nc1cccc(-n2c(=O)n(C(C)C)c(=O)c3cnc(Nc4ccc(N5CCN(C)CC5)cc4OC)nc32)c1 | > 50 µM |

---

# Target Or System: Epidermal growth factor receptor (Homo sapiens, UniProt P00533, L858R/T790M)
# Sequence (P00533 25-1210 T790M/L858R limits assumed): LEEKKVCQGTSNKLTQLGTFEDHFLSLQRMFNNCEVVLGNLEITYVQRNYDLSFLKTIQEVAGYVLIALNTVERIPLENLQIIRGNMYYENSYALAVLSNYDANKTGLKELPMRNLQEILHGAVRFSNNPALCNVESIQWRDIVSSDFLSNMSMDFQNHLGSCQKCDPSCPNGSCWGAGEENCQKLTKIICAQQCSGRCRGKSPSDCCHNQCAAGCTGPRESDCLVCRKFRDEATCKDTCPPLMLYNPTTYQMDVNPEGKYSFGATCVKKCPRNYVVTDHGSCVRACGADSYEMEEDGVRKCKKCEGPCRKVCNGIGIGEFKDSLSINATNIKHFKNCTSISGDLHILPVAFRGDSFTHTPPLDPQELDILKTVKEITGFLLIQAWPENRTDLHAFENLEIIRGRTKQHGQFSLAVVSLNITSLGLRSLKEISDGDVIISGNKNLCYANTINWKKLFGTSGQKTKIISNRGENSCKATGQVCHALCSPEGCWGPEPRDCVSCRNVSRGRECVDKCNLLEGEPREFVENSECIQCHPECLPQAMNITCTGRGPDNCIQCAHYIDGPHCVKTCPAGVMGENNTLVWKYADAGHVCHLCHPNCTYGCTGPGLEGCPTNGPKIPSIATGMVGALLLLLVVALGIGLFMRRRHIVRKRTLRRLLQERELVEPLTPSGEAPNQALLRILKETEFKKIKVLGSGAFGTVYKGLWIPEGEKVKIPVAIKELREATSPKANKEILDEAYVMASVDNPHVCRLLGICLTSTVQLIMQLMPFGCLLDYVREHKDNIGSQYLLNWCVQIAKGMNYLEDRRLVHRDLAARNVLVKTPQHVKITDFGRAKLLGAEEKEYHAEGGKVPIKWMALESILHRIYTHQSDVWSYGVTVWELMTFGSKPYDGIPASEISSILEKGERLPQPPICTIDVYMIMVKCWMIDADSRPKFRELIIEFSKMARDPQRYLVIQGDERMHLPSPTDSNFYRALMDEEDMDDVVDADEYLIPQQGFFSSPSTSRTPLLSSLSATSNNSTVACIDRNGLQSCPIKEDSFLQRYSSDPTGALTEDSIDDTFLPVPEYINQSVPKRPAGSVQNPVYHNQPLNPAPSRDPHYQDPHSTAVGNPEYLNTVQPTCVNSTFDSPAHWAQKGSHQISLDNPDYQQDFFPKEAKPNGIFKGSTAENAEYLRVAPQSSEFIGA
# Test Method Notes: Inhibition of recombinant human GST-tagged EGFR L858R/T790M double mutant expressed in baculovirus expression system using Poly(Glu,Tyr)4:1 as substrate after 1 hr by ELISA
Measurement Name: log10(IC50) (log10 of the value in nM)

| Compound String | log10(IC50) |
| --- | --- |
| C=CC(=O)Nc1cccc(-n2c(=O)n(C(C)C)c(=O)c3cnc(Nc4ccc(N5CCN(C)CC5)c(OC)c4)nc32)c1 | 0.83 |
| C=CC(=O)Nc1cccc(-n2c(=O)n(CCCc3ccccc3)c(=O)c3cnc(Nc4ccc(N5CCC(N(C)C)CC5)cc4OC)nc32)c1 | 0.15 |
| C=CC(=O)Nc1cccc(-n2c(=O)n(C(C)C)c(=O)c3cnc(Nc4ccc(N5CCN(C)CC5)c(C)c4)nc32)c1 | 0.00 |
| C=CC(=O)Nc1cccc(-n2c(=O)n(C(C)C)c(=O)c3cnc(Nc4ccc(N5CCC(N(C)C)CC5)cc4OC)nc32)c1 | -0.10 |
| C=CC(=O)Nc1cccc(-n2c(=O)n(C(C)C)c(=O)c3cnc(Nc4ccc(N5CCC(N6CCN(C)CC6)CC5)cc4OC)nc32)c1 | 1.15 |
| C=CC(=O)Nc1cccc(-n2c(=O)n(CCc3ccccc3)c(=O)c3cnc(Nc4ccc(N5CCC(N(C)C)CC5)cc4OC)nc32)c1 | 0.00 |
| C=CC(=O)Nc1cccc(-n2c(=O)n(C(C)C)c(=O)c3cnc(Nc4ccc(N(C)CCN(C)C)cc4OC)nc32)c1 | 1.20 |
